Values compiled from PubChem BioAssay AID540269.

SUBJECT_OF_TEST: glucose-6-phosphate dehydrogenase-6-phosphogluconolactonase (Plasmodium falciparum 3D7)
ASSAY_TEXT: PfG6PD enzyme inhibitors, kinetic NADPH readout, dose response, orthogonal assay, biochemical, kinetic NADPH detection (AID 540269)
PARTICULARS: purified PfG6PD-6PGL
Activity calls are given as the source filed them. The rule behind the calls is not given here.
Possible outcomes: Y (active), N (inactive)

[[record]]
molecule = "COC(=O)[C@H](C)NC(=O)c1cc2c(cn1)[nH]c1ccccc12"
category = "Y"

[[record]]
molecule = "O=C(Nc1ccc(N2CCOCC2)c(Cl)c1)c1ccc(Cl)cc1"
category = "N"

[[record]]
molecule = "CCn1c(SCc2nc3scc(-c4ccccc4)c3c(=O)[nH]2)nnc1-c1cccs1"
category = "Y"

[[record]]
molecule = "COC(=O)CCC(=O)OC1(C)C(=O)C2=CN(c3ccccc3)C(c3ccc(OC)cc3)=CC2=C(Br)C1=O (stereo not given)"
category = "N"

[[record]]
molecule = "CCOc1cc(NCc2ccccc2)c2ncn(C(C)C)c2c1"
category = "N"

[[record]]
molecule = "CCN(CC)C(=S)SSC(=S)N(CC)CC"
category = "N"

[[record]]
molecule = "N#Cc1ccc(Oc2cccc3cccnc23)c([N+](=O)[O-])c1"
category = "N"

[[record]]
molecule = "Cn1c(=O)[nH]c(=O)c2c1nc([N+](=O)[O-])n2Cc1ccccc1"
category = "N"

[[record]]
molecule = "COc1ccc(CNC(=O)Cc2cn(C)c3ccccc23)c(OC)c1"
category = "N"

[[record]]
molecule = "NNC(=O)CN1C(c2ccccc2Br)=Nc2ccc(Br)cc2C1c1ccccc1 (stereo not given)"
category = "Y"

[[record]]
molecule = "Cc1cc(C)c(S(=O)(=O)Nc2cc(SCC(=O)O)c(O)c3ccccc23)cc1C"
category = "Y"

[[record]]
molecule = "O=[N+]([O-])c1cccc(SSc2cccc([N+](=O)[O-])c2)c1"
category = "Y"

[[record]]
molecule = "CC(C)(C)NC(=O)COc1ccc(CNc2ccc3[nH]c(=O)[nH]c3c2)cc1"
category = "Y"

[[record]]
molecule = "Cc1ccc(NC(=O)c2ccc(Cl)c(N3C(=O)C=CC3=O)c2)cc1"
category = "Y"

[[record]]
molecule = "CN(C)c1ccc(C=c2c3ccccc3n3c2c2ccccc2[n+]3C)cc1"
category = "Y"

[[record]]
molecule = "CC(C)c1nnc(NC(=O)c2cc3ccccc3o2)s1"
category = "Y"

[[record]]
molecule = "CC1(OC(=O)C2CCCC2)C(=O)C=C2C=C(c3ccsc3)N(CC3CC3)C=C2C1=O (stereo not given)"
category = "N"

[[record]]
molecule = "COc1ccc(Nc2cc(C)c3c(O)cccc3n2)cc1"
category = "N"

[[record]]
molecule = "COc1ccc(N2CSC3=C(C#N)C(c4cc(OC)c(OC)cc4OC)CC(=O)N3C2)c(OC)c1 (stereo not given)"
category = "N"

[[record]]
molecule = "CC1=CC(C)(C)Nc2ccc(OC(=O)CN3C(=O)CCC3=O)cc21"
category = "Y"

[[record]]
molecule = "O=[N+]([O-])c1ccc(Sc2cccc3cccnc23)c2cccnc12"
category = "N"

[[record]]
molecule = "C=CCN1C=C2C(=O)C(C)(OC(=O)CCC(=O)OC)C(=O)C(Br)=C2C=C1c1ccc(OC)cc1 (stereo not given)"
category = "N"

[[record]]
molecule = "N#C/C(C(=O)Nc1ccc(Cl)cc1)=C(/S)Nc1ccccc1"
category = "Y"

[[record]]
molecule = "COc1cc(NCc2ccccc2)c2ncn(Cc3ccccc3)c2c1"
category = "N"

[[record]]
molecule = "Nc1ccc(S(=O)(=O)c2cc(O)c3ccccc3c2O)cc1"
category = "N"

[[record]]
molecule = "Cn1cc(S(=O)(=O)CC(=O)N2CCc3ccccc32)c2ccccc21"
category = "N"

[[record]]
molecule = "Cc1cc(O)c(C(C)C)cc1N=Cc1ccccc1[N+](=O)[O-]"
category = "N"

[[record]]
molecule = "Oc1ccc(C23CC4CC(CC(C4)C2)C3)cc1O"
category = "Y"

[[record]]
molecule = "Cc1cc(O)c(-c2cc(O)c(C)cc2O)cc1O"
category = "Y"

[[record]]
molecule = "O=S(=O)(Nc1cc(Sc2cccc3cccnc23)c(O)c2ccccc12)c1ccc(F)cc1"
category = "Y"

[[record]]
molecule = "O=C(CCl)NCCN1C(=O)S/C(=C\\c2cccnc2)C1=O"
category = "N"

[[record]]
molecule = "COc1cccc(-c2c(C(=O)N/N=C/c3ccc(C)o3)nnn2-c2nonc2N)c1"
category = "Y"

[[record]]
molecule = "COc1cc(CN2CCN(CCCc3ccccc3)C(CCO)C2)cc(OC)c1O (stereo not given)"
category = "N"

[[record]]
molecule = "Cc1nnc(SCC(=O)c2cc(C)n(-c3ccc4c(c3)OCO4)c2C)s1"
category = "N"

[[record]]
molecule = "COC1=C(Br)C(=O)c2nc(C)ccc2C1=O"
category = "N"

